Please go through the items and note down their pEC50.
System Tested: recombinant tick kinin receptor (BMLK3) (Rhipicephalus microplus, UniProt Q9NHA4)
Sequence (Q9NHA4 entry or part of it): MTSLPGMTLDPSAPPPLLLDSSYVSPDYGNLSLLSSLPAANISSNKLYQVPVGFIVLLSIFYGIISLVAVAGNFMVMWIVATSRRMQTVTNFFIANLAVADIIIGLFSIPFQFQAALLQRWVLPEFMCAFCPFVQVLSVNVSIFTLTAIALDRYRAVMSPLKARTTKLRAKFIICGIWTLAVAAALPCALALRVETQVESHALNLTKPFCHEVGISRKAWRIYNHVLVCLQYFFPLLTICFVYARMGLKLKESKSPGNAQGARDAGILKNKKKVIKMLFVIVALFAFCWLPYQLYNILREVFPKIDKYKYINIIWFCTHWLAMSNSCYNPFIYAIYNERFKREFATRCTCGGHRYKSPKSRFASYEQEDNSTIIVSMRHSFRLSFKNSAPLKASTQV
Test Method Notes: Dose-response dual-addition calcium fluorescence assay on BMLK3 cells
Assay type: cell-based
Condition Context: virtual hit molecules; dual-addition assay, recombinant tick kinin receptor (BMLK3) cells; read-out: BMLK3 EC50
Numbers only, as −log10 of the molar value.

Consider the worked cases shown below.
Clc1ccc(-c2csc3ncnc(N4CCN(c5ccccn5)CC4)c23)cc1 [SACC-0064924] :: 4.76
Cc1ccc(S(=O)(=O)Nc2ccc3nc(N)sc3c2)cc1 [SACC-0034373] :: 5.71
O=C(c1ccco1)N1CCN(c2cccc3scc(-c4cccs4)c23)CC1 [SACC-0117388] :: 6.91
S=C(NCc1ccccc1)NN=C1CCC(c2ccccc2)CC1 (stereo not drawn) [SACC-0131532] :: 4.78

Pending compound:
So, COc1ccc(C=Nn2c(C(F)(F)F)n[nH]c2=S)cc1 [SACC-0087120] ? Its pEC50 was 5.95

---

System Tested: recombinant tick kinin receptor (BMLK3) (Rhipicephalus microplus, UniProt Q9NHA4)
Test Method Notes: Dose-response dual-addition calcium fluorescence assay on BMLK3 cells
Format: cell-based
Condition Context: second addition Rhimi-K-1 1 μmol L^−1; read-out: BMLK3 IC50
Please go through the items and note down their IC50.
Give bare numbers, in µM.

CCCC[n+]1c(/C=C2/C=CN(CC)c3ccc(C)cc32)ccc2ccccc21 [SACC-0048555] :: 1.51
CCOC(=O)c1[nH]c2ccc(Br)cc2c1N=C(C)N(C)C [SACC-0055903] :: 6.02

Pending molecule:
So, Cc1ccc(-c2csc3ncnc(NCc4ccco4)c23)cc1 [SACC-0033457] ? Its IC50 was 14.8

---

System Tested: recombinant tick kinin receptor (BMLK3) (Rhipicephalus microplus, UniProt Q9NHA4)
Test Method Notes: Dose-response dual-addition calcium fluorescence assay on BMLK3 cells
Type: cell-based
Condition Context: virtual hit molecules; dual-addition assay, recombinant tick kinin receptor (BMLK3) cells; read-out: BMLK3 EC50
Please go through the items and note down their EC50.

Consider the worked cases shown below.
CC1=CC(=NNC(=S)NCc2ccccc2)CC1 :: > 25 µM
c1ccc(-c2csc3ncnc(N4CCCC4c4cccnc4)c23)cc1 (stereo not drawn) :: > 25 µM
COc1cc2c(cc1OC)CN(c1ncnc3scc(-c4ccc(Cl)cc4)c13)CC2 :: > 25 µM
Cc1ccc(S(=O)(=O)Nc2nc(CN3CCCC3)nc3sc(C)c(C)c23)cc1 :: > 25 µM
CCC(CO)Nc1nc(CN2CCCCC2)nc2scc(-c3ccccc3)c12 (stereo not drawn) :: > 25 µM

Pending compound:
So, `CCN1C=C/C(=C\C=C\c2cc[n+](CC)c3ccccc23)c2ccccc21` ? Its EC50 was < 0.0285 µM

---

Please go through the items and note down their IC50.
System Tested: recombinant tick kinin receptor (BMLK3) (Rhipicephalus microplus)
Test Method Notes: Dose-response dual-addition calcium fluorescence assay on BMLK3 cells
Type: cell-based
Condition Context: virtual hit molecules; dual-addition assay, recombinant tick kinin receptor (BMLK3) cells; read-out: BMLK3 antagonist IC50

Batch lookup, IC50 per entry.
1. N#CC(=C(O)c1ccc(-c2ccc(Cl)cc2Cl)o1)c1nc2ccccc2c(=O)[nH]1
2. Clc1ccc(-c2csc3ncnc(N4CCN(c5ccccn5)CC4)c23)cc1
3. CCc1cc2c(NCc3ccco3)nc(C)nc2s1
4. c1ccc(-c2csc3ncnc(Nc4ccc5c(c4)OCCO5)c23)cc1
5. COc1ccc(C=Nn2c(C(F)(F)F)n[nH]c2=S)cc1

### Response
< 28.5 nM
< 28.5 nM
> 25000 nM
> 25000 nM
< 28.5 nM
